Test system: bEnd3 monolayer
Test: Permeability assay, static BBB model of bEnd3 monolayer (streptavidin-HRP passage)
Assay type: cell-based, mouse
Conditions: 50 µM, 90 min
Readout name: change of permeability of bEnd3 monolayer vs. control (in words)

Compound	Assay value
COc1ccc2[nH]c(C(=O)NN=Cc3ccc(O)cc3O)cc2c1 [Compound 5c]	reduced the permeability
COc1ccc2[nH]c(C(=O)NN=Cc3cccc(O)c3O)cc2c1 [Compound 5a]	reduced the permeability
COc1ccc2[nH]c(C(=O)NN=Cc3ccc(O)c(O)c3)cc2c1 [Compound 5b]	reduced the permeability

* * *

Experiment: MTT cell viability assay (cytotoxicity), SH-SY5Y
Settings: human, SH-SY5Y neuroblastoma cells
Description: Neuroblastoma cell line SH-SY5Y (94030304) was acquired from the European Collection of Cell Cultures (ECACC, Salisbury, UK). Cells were cultured in a medium prepared with RPMI basic media supplemented with 10% heat-inactivated FBS (fetal bovine serum), 2 mM L-glutamine, 1% antibiotics (penicillin/streptomycin), and incubated at 37 °C in a humidified atmosphere containing 5% of CO2. The culture’s medium was replaced at a time interval of 2–3 days. […]
Where a name gives a salt, the structure may show the parent alone.
Each record here notes measured IC50 at 24 h.

Compound	IC50 at 24 h
C#CCN[C@@H]1CCc2ccccc21 [Rasagiline.HCl, Rasagiline]	> 500 µM
COc1ccc2[nH]cc(CCNC(C)=O)c2c1	> 500 µM
O=C(O)CCc1c[nH]c2ccccc12	> 500 µM
